These data points were gathered from the supplement of paper PMC9170038.

Test system: MS2 coat protein
Assay: apparent KD of MS2 coat protein; designed switch direction (-1 OFF switch, 1 ON switch): -1; higher = weaker reporter binding
Conditions: input ligand: microRNA oligo, concentration not stated
apparent KD of MS2 coat protein for assorted sequences
# output: bare number, implied unit µM

Below are worked cases with known answers.
AAGACUAGAGGAUAUACAUGAGGAUCACCCAUGUAACUGUCAGGUGACUGACGGAAAUGUAGAAGGCUAGUCAA [Mat - Exclusion 3 - JL mod - D81] (Eterna round: R96, puzzle: Exclusion 3): 0.0136
ACAUGAGGAUCACCCAUGUCCGGCUGGUCCGUCUCGGCUGUCGAGGAUAUGGCUCGGUGUCCGCGCUAGAAGGUGGGAGCCGGC [Aenatbe mod 73] (Eterna round: R96, puzzle: Exclusion NG 3): 0.127
AUUAAAGACCGAGGAUAUCGAGGAAAUACACUGCGAGAAGGCGGGUACUCGGACGAUUCGACAUGAGGAUCACCCAUGUGCACA [Tixequ] (Eterna round: R96, puzzle: Exclusion NG 1): 0.0189
AGUACUAACACGUUAGUGUUAGUACAAUAAGCUUGUGAAACAUGAGGAUCACCCAUGUCCUCAUAAGCUCGUCUUAU [salish99_TOv2_r3_056] (Eterna round: R96, puzzle: Sensor v3, turn-off variant 2): 0.466

Let us examine a further case.
Qu. For the sequence GGUCCACAUGAGGAUCACCCAUGUAAUAACAUGCAGCGCAGGAAGGAUAUGCCCGAACAAAGCCAGCAGAAGGUCCAUUAACAU [Eternabot solution 7] (Eterna round: R96, puzzle: Exclusion NG 3) , give its reported apparent KD of MS2 coat protein.
Ans. 0.0845

====

Tested on: MS2 coat protein
Assay: apparent KD of MS2 coat protein; higher = weaker reporter binding
Details: Eterna round: R101; input ligand: none
apparent KD of MS2 coat protein for assorted sequences
# output: bare number, implied unit nM

Below are worked cases with known answers.
AUAUAUAUUUAGAAGGACAUGAGGAUCACCCAUGUCGCCGGGCCCGGGAAACCGGGCCCGGCCAUGUAGGAUAUAGAUAUAUAU [#This is a good prank 13] (puzzle (switch architecture): Inverted Exclusion NG 2): 6.41
AAAAAUUCUUAAGGAUAUCAGUGGCAAAGCCACUGAGAAGGUGAGGAUCACCCACCUACGUGACGCUGGAAACAGCGUCACGAA [#SharedSequence ExNG1 - 29] (puzzle (switch architecture): Exclusion NG 1): 16.6
AUCAGCUCGUCAGGAUAUACGUCACUGCUUCGGCAGUGUGGUAAGAUCACAUGAGGAUCACCCAUGUAGAAGGGACGAGCUGAU [#EX_NG2_M81 #GC_VS_GU_SWITCHING] (puzzle (switch architecture): Exclusion NG 2): 13.4
GGGUACAUCGGAGGAUAUCAUGUAUAUACAUGAGGAUCACCCAUGUCGAUGGAGACAUCGGAGAUUGAGAAGGCCGAUGUACCG (puzzle (switch architecture): Same State NG 2): 382

Let us examine a further case.
Qu. For the sequence AGAAACUACGAGAAGGACAUGUGGUCCUUCAAAACCAUGAGGAUCACCCAUGUAGGAUAUCGUAGUUUCAGGAUCGUGAGAUCA [salish99_ISLExNG1_023 #HINGE] (puzzle (switch architecture): Inverted Small Loop Exclusion NG 1) , give its reported apparent KD of MS2 coat protein.
Ans. 268
